Test system: NCI-H226 lung
Assay: NCI-60 one-dose screen, 48 h (100 = growth as untreated, 0 = no growth, -100 = all killed)
Conditions: 10 µM
This is part of a sample that, as a whole, favours compounds with a hit. Of some 83,000 tested, about 20% had one in any assay.
Define the label as Fulfilled when growth is strictly less than 50% and as Not fulfilled in all remaining cases.

MOLECULE	ASSIGNED CLASS
Cc1ccc2c(c1)-c1cc(C)nn1-c1ccc(C#N)cc1O2	Not fulfilled
FC(F)(F)c1ccc(-c2cnc(Cl)nc2NC2CCCCCC2)cc1	Fulfilled
COc1ccc(Nc2nc(NCc3ccccc3)c3ccccc3n2)cc1	Fulfilled

INPUT: Consider the molecule CC(=O)/C(=C\c1ccc(Cl)cc1)c1ccccc1 . Is its growth strictly less than 50%?
OUTPUT: Fulfilled

INPUT: Is it true that growth reported for Cc1ccccc1[P+](Cc1ccccc1)(c1ccccc1)c1ccccc1 is less than 50%?
OUTPUT: Fulfilled

INPUT: Determine if CC(C)C[C@H](NC(=O)Cn1ccc2ccccc2c1=O)B(O)O shows growth strictly lower than 50%.
OUTPUT: Fulfilled

INPUT: Is it true that growth reported for COc1ccc(-c2nc(-c3nc4ccc(OC)cc4[nH]3)c3ccccn23)cc1 is less than 50%?
OUTPUT: Not fulfilled

INPUT: For this molecule, is growth lower than 50%? O=c1oc2c3ccc4cnccc4c3[nH]c2c2ccccc12
OUTPUT: Not fulfilled

INPUT: Given CCCCCCCCCCCCCCCCn1cc[n+](C)c1 , is recorded growth strictly lower than 50%?
OUTPUT: Fulfilled

INPUT: Lab note: confirm whether the reported growth for this molecule is below 50%, equality not counting. molecule: C[C@H](NC(=O)[C@@H]1CSSC[C@@H](NC(=O)Cc2nc3ccccc3cc2O)C(=O)NCC(=O)N1C)c1ccccc1
OUTPUT: Not fulfilled

INPUT: Consider the molecule O=C(Cn1ccc(=O)[nH]c1=O)c1ccc([N+](=O)[O-])o1 . Is its growth strictly less than 50%?
OUTPUT: Not fulfilled

* * *

Tested on: SK-MEL-28 melanoma
Assay: NCI-60 one-dose screen, 48 h
Conditions: 10 µM
Procedure: Growth inhibition of the SK-MEL-28 human tumor cell line is measured as a screen for anti-cancer activity. Cells are grown in 96 well plates and exposed to the test compound for 48 hours. Compounds are tested at a single concentration, which is 10^-5 M for most compounds. The reported endpoint is percent growth (GI% or GIPRCNT), where numbers from 0 - 100% represent growth inhibition, and numbers from -100% - 0 represent cell death. For example, a value of 40 represents 60% growth inhibition. […]
The panel holds about 83,000 compounds, 20% with a hit somewhere; the sample as a whole holds those more often. Active and inactive are the calls of the source. How the source made its calls: active means growth percent below 10; inactive means the rest.
Respond with a class label; see YES (active), NO (inactive)

Solved cases (5 shown):
MOLECULE	ASSIGNED CLASS
COc1ccc(CCc2nc3cc(-c4c(C)noc4C)ccc3n2CCN2CCOCC2)cc1	NO
COC1OC2COC(c3ccccc3)OC2C(=O)C1NC(=O)c1ccccc1 (stereo unspecified)	NO
COc1cc(C)c2sc3ccccc3c(=O)c2c1NCCN(C)C	NO
COc1ccc(-c2[nH]ncc2/C=C/c2cc(C(F)(F)F)[nH]c(=O)n2)cc1	NO
CC1=CSC2=NC(c3ccc(Cl)c(Cl)c3)=CC(c3ccc(Cl)cc3)N12 (stereo unspecified)	NO

INPUT: How was CCC(CCNc1cc(OC)cc2cccnc12)CN1C(=O)c2ccccc2C1=O (stereo unspecified) classified in this test?
OUTPUT: NO

INPUT: Recorded test call requested for CCc1cc2n(n1)-c1ncc(C(=O)OC)cc1Oc1ccccc1-2
OUTPUT: NO

INPUT: Hi, do you know how O=C(OCC1OC(n2cc(C(F)(F)F)c(=O)[nH]c2=O)CC1OC(=O)c1ccc([N+](=O)[O-])cc1)c1ccc([N+](=O)[O-])cc1 (stereo unspecified) came out in this test?
OUTPUT: NO

INPUT: What call does the record list for CCCOCC(O)CNCCN (stereo unspecified) ?
OUTPUT: NO

INPUT: What classification did CN(C)CCCN1c2ccccc2Sc2ccc(C(F)(F)F)cc21 end up with in this test?
OUTPUT: YES

INPUT: Identify the outcome logged in this assay for the molecule shown: Cc1nnc2c3nnc(-c4ccc(Cl)cc4)n3c3ccccc3n12
OUTPUT: NO

* * *

System: A549/ATCC NSCLC
Test: NCI-60 one-dose screen, 48 h (100 = growth as untreated, 0 = no growth, -100 = all killed)
Conditions: 10 µM
About 83,000 compounds went through this panel and 20% of them were active in at least one assay; those are over-represented in the sample as a whole.
RESULT TYPE: growth (%)
Record the value in %, omitting the unit from your answer.

Some entries whose results are on file:
COMPOUND	MEASURED ON	RESULT UNITS	growth
COc1cc(-c2cc(-c3ccc(C)cc3)nc3nc(N)[nH]c(=O)c23)ccc1Oc1ccnc2cc(Cl)ccc12	A549/ATCC NSCLC	%	78.7
COc1cc(-c2nc3ccc(C)cc3[nH]2)ccc1OCC(=O)N=Nc1c(O)[nH]c2ccccc12	A549/ATCC NSCLC	%	8.54
O=C1c2cc(Cl)ccc2-c2c(O)cc(Cl)cc21	A549/ATCC NSCLC	%	105
Cc1ccccc1C1=N[C@@H](Cc2ccccc2)C(=O)c2c(nc3ccccn23)N1	A549/ATCC NSCLC	%	91.7
COCCOC(=O)NC(=O)Nc1ccc(C(=O)c2ccc(Cl)cc2)cc1	A549/ATCC NSCLC	%	41.8
COc1cc(-c2c(C#N)c(N)n3c(nc4ccccc43)c2C#N)cc(Br)c1OC	A549/ATCC NSCLC	%	4.73

INPUT: Find growth (A549/ATCC NSCLC) for the entry CN(C)CCCN(Cc1ccccc1O)C(=S)Nc1ccc(Cl)cc1
OUTPUT: 98.1

INPUT: Please state recorded growth (tested on A549/ATCC NSCLC) of CCCc1ccnc(NS(=O)(=O)c2ccc(N)cc2)n1
OUTPUT: 79.3

INPUT: Requested read-out growth, target or system A549/ATCC NSCLC, entry O=[N+]([O-])c1cc2ncccc2c2ncccc12
OUTPUT: 88.4

INPUT: Query growth on A549/ATCC NSCLC for CC(C)OCc1cc(CN2CCN(c3cccc(Cl)c3)CC2)c(O)c2ncccc12
OUTPUT: -5.68

INPUT: What reported growth corresponds to COc1ccc(COC(=O)CC(C)C)cc1 on A549/ATCC NSCLC?
OUTPUT: 89.5

* * *

Entries annotated with measured growth
Test system: MDA-MB-231 breast
Experiment: NCI-60 one-dose screen, 48 h (100 = growth as untreated, 0 = no growth, -100 = all killed)
Details: 10 µM
The panel holds about 83,000 compounds, 20% with a hit somewhere; the sample as a whole holds those more often. Activity calls are given as the source filed them. The calls were made as follows: active = growth percent below 10; inactive = the rest.

CHEMICAL SMILES	MEASURED ON	growth
CCCCC(=O)N(c1ccc(Nc2c3ccccc3nc3cc([N+](=O)[O-])ccc23)cc1)S(C)(=O)=O	MDA-MB-231 breast	84.6% (inactive)
CCOC(=O)c1sc(NC(=O)c2cc(OC)c(OC)c(OC)c2)nc1C	MDA-MB-231 breast	96.3% (inactive)
O=C1/C(=C/c2ccc([N+](=O)[O-])s2)Oc2ccc(Cl)cc21	MDA-MB-231 breast	-57% (active)

Next molecule, growth to be filled in.
INPUT: Recall the recorded growth for COc1cc(C)c2sc3ccccc3c(=O)c2c1NCCN(C)C with MDA-MB-231 breast and state it.
OUTPUT: 27.9% (inactive)

* * *

System: HCC-2998 colon
Experiment: NCI-60 one-dose screen, 48 h
Conditions: 10 µM
Method: Growth inhibition of the HCC-2998 human tumor cell line is measured as a screen for anti-cancer activity. Cells are grown in 96 well plates and exposed to the test compound for 48 hours. Compounds are tested at a single concentration, which is 10^-5 M for most compounds. The reported endpoint is percent growth (GI% or GIPRCNT), where numbers from 0 - 100% represent growth inhibition, and numbers from -100% - 0 represent cell death. For example, a value of 40 represents 60% growth inhibition. […]
Compounds without any hit were thinned out: in the full panel of roughly 83,000, 20% have a hit. Calls of active or inactive are those of the source. Rule for the calls: active = growth percent below 10; inactive = the rest.
Return exactly one item of class 1 = active, class 0 = inactive

MOLECULE	ASSIGNED CLASS
Nc1ncc(-c2ccc(C(F)(F)F)cc2)c(NC2CCCCCC2)n1	class 0

INPUT: Returns: the outcome recorded for CC1=CSC2=NC(c3ccc(Cl)c(Cl)c3)=CC(c3ccc(Cl)cc3)N12 (stereo not given) in this assay.
OUTPUT: class 0

INPUT: What call does the record list for COc1ccc(-c2ccc(-c3ccc(C(=N)N)c(F)c3)s2)cc1 ?
OUTPUT: class 1

* * *

System: MOLT-4 leukemia
Test: NCI-60 one-dose screen, 48 h
Conditions: 10 µM
About 83,000 compounds went through this panel and 20% of them were active in at least one assay; those are over-represented in the sample as a whole. Calls of active or inactive are those of the source. Rule for the calls: active = growth percent below 10; inactive = the rest.
Choose the fitting class; nothing outside label 1 = active, label 0 = inactive is accepted.

COMPOUND	ASSIGNED CLASS
Nc1c(C(=O)Nc2ccccc2F)sc2nc3c(cc12)C(=O)CCC3	label 0

INPUT: Fill in: this test's call for COc1ccc(COC(=O)CC(C)C)cc1 is ___
OUTPUT: label 0
